# STUDY_TARGET: Mitogen-activated protein kinase 7 (Homo sapiens)
# TEST_METHOD_NOTES: ERK5 transactivation activators in reporter cells, primary screen, cell-based, HTS (AID 1508626);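 note: luciferase driven by Gal4-ERK5 fusion binding five Gal4 sites before minimal TATA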
# CONDITION_DETAILS: HeLa Gal4-ERK5 transactivation, 18 h, at 5 µM
The source made the active and inactive calls.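 Rule for the calls: active = luciferase signal above three times the same-plate solvent-only control wells; inactive = the rest.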
Outcome codes: class 1 (active), class 0 (inactive)

{"columns": ["COMPOUND", "STUDY_TARGET", "LABEL"],
 "data": [
  ["COC(=O)[C@]1(C)CC[C@]2(C)CC[C@]3(C)C4=CCc5c(cc(O)c(O)c5C)[C@]4(C)CC[C@@]3(C)[C@@H]2C1", "Mitogen-activated protein kinase 7 (Homo sapiens)", "class 0"],
  ["N#Cc1c(Cl)c(Cl)c(Cl)c(C#N)c1Cl", "Mitogen-activated protein kinase 7 (Homo sapiens)", "class 1"],
  ["CC(C)(C)NCC(O)c1cc(Cl)c(N)c(Cl)c1 (stereo not given)", "Mitogen-activated protein kinase 7 (Homo sapiens)", "class 0"],
  ["COc1ccc(C(=O)O)cc1OC", "Mitogen-activated protein kinase 7 (Homo sapiens)", "class 0"],
  ["CC(=O)O[C@@H]1[C@H]2CC[C@H]3[C@@](C)(O)[C@@H]4C[C@H](O)C(C)(C)[C@@]4(O)[C@@H](O)C[C@@]13C[C@@]2(C)O", "Mitogen-activated protein kinase 7 (Homo sapiens)", "class 0"],
  ["CCCCC[C@H]1C(=O)O[C@H](C)[C@H](NC(=O)c2cccc(NC=O)c2O)C(=O)O[C@@H](C)[C@@H]1OC(=O)CC(C)C", "Mitogen-activated protein kinase 7 (Homo sapiens)", "class 0"],
  ["N#Cc1nn(-c2c(Cl)cc(C(F)(F)F)cc2Cl)c(N)c1S(=O)C(F)(F)F (stereo not given)", "Mitogen-activated protein kinase 7 (Homo sapiens)", "class 0"],
  ["CC(C)(C)C(=O)C(Oc1ccc(Cl)cc1)n1cncn1 (stereo not given)", "Mitogen-activated protein kinase 7 (Homo sapiens)", "class 0"],
  ["CNC(C)C(O)c1ccccc1 (stereo not given)", "Mitogen-activated protein kinase 7 (Homo sapiens)", "class 0"],
  ["CC1=C2[C@H]3OC(=O)[C@@H](C)[C@@H]3CC[C@@]2(C)C=CC1=O", "Mitogen-activated protein kinase 7 (Homo sapiens)", "class 0"],
  ["C[C@]12CCC(=O)C(O)=C1CC[C@@H]1[C@@H]2CC[C@]2(C)C(=O)CC[C@@H]12", "Mitogen-activated protein kinase 7 (Homo sapiens)", "class 0"],
  ["COP(=O)(OC)OC=C(Cl)Cl", "Mitogen-activated protein kinase 7 (Homo sapiens)", "class 0"],
  ["CC1=C(O)C(=O)C=C2C1=CC=C1[C@@]2(C)CC[C@@]2(C)[C@@H]3C[C@](C)(C(=O)O)CC[C@]3(C)CC[C@]12C", "Mitogen-activated protein kinase 7 (Homo sapiens)", "class 0"],
  ["COc1ccc(Cc2nccc3cc(OC)c(OC)cc23)cc1OC", "Mitogen-activated protein kinase 7 (Homo sapiens)", "class 0"],
  ["OCC(O)Cc1ccc2c(c1)OCO2 (stereo not given)", "Mitogen-activated protein kinase 7 (Homo sapiens)", "class 0"],
  ["O=C(O)COc1cc(Cl)c(Cl)cc1Cl", "Mitogen-activated protein kinase 7 (Homo sapiens)", "class 0"],
  ["COc1ccc(/C=C/c2cc(O)cc(O)c2)cc1", "Mitogen-activated protein kinase 7 (Homo sapiens)", "class 0"],
  ["S=C=NCc1ccccc1", "Mitogen-activated protein kinase 7 (Homo sapiens)", "class 1"],
  ["COc1ccc2c(c1OC)C(=O)O[C@H]2[C@H]1c2cc3c(cc2CCN1C)OCO3", "Mitogen-activated protein kinase 7 (Homo sapiens)", "class 0"],
  ["O=[N+]([O-])c1cc([As](=O)(O)O)ccc1O", "Mitogen-activated protein kinase 7 (Homo sapiens)", "class 0"],
  ["CC[C@@H]1C(=O)OC[C@@H]1Cc1cncn1C", "Mitogen-activated protein kinase 7 (Homo sapiens)", "class 0"],
  ["O=c1c(O)c(-c2ccc(O)c(O)c2)oc2c(O)c(O)cc(O)c12", "Mitogen-activated protein kinase 7 (Homo sapiens)", "class 0"],
  ["C=CCN1CC[C@]23c4c5ccc(O)c4O[C@H]2C(=O)CC[C@@]3(O)[C@H]1C5", "Mitogen-activated protein kinase 7 (Homo sapiens)", "class 0"],
  ["O=C1c2ccccc2-c2cccc3cccc1c23", "Mitogen-activated protein kinase 7 (Homo sapiens)", "class 0"],
  ["CC(=O)Nc1cc([As](=O)(O)O)ccc1O", "Mitogen-activated protein kinase 7 (Homo sapiens)", "class 0"],
  ["Cc1ccc(N=CN(C)C=Nc2ccc(C)cc2C)c(C)c1", "Mitogen-activated protein kinase 7 (Homo sapiens)", "class 0"],
  ["CNC(Cc1c[nH]c2ccccc12)C(=O)O (stereo not given)", "Mitogen-activated protein kinase 7 (Homo sapiens)", "class 0"],
  ["O=C1CC[C@@]2(O)[C@H]3Cc4ccc(O)c5c4[C@@]2(CCN3CC2CC2)[C@H]1O5", "Mitogen-activated protein kinase 7 (Homo sapiens)", "class 0"],
  ["CN1C[C@H](C(=O)N[C@]2(C)O[C@@]3(O)[C@@H]4CCCN4C(=O)[C@H](Cc4ccccc4)N3C2=O)C=C2c3cccc4[nH]cc(c34)C[C@H]21", "Mitogen-activated protein kinase 7 (Homo sapiens)", "class 0"],
  ["O=c1[nH]oc2c1CCNC2", "Mitogen-activated protein kinase 7 (Homo sapiens)", "class 0"],
  ["COc1cc(OC)c2c(c1)O[C@H](c1ccc(OC)c(OC)c1)[C@@H](O)C2", "Mitogen-activated protein kinase 7 (Homo sapiens)", "class 0"],
  ["N[C@@H](Cc1ccc(N(CCCl)CCCl)cc1)C(=O)O", "Mitogen-activated protein kinase 7 (Homo sapiens)", "class 0"],
  ["CCC(C)C(=O)OC1C[C@@]2(C)[C@H](c3ccoc3)OC(=O)CC23OC2(C)OC34C(OC(=O)C(C)C)[C@@]3(O)[C@@H](OC(=O)C5(C)OC5C)[C@@]5(C)C[C@]3(O)[C@@](C)([C@H]5CC(=O)OC)C14O2 (stereo not given in full)", "Mitogen-activated protein kinase 7 (Homo sapiens)", "class 0"],
  ["C[N+]1(C)[C@@H]2CC[C@H]1CC(OC(=O)C(CO)c1ccccc1)C2 (stereo not given in full)", "Mitogen-activated protein kinase 7 (Homo sapiens)", "class 0"],
  ["COc1ccc2c(c1OC)C(=O)O[C@@H]2[C@H]1c2cc3c(cc2CCN1C)OCO3", "Mitogen-activated protein kinase 7 (Homo sapiens)", "class 0"]
]}
